What IC50 was measured for each of the following?
molecular target: purified HLA DRB1*0101 (human); assay: competition with 125I-labelled reference peptide, purified HLA
Express the result in µM but write the number alone.

# input Item under review: AGLLVSDGGPNLYNI (modifications not checked) [Flu.PB1.590] . Reported IC50?
# output 8.12

# input Item under review: NNMINNDLGPATAQM (modifications not checked) [Flu.PB1.535] . Reported IC50?
# output 3.08

# input Item under review: AKSMEYDAVATTHSW (modifications not checked) [Flu.PB1.655] . Reported IC50?
# output 0.202
